- measured-on: BTb, colchicine site (Bos taurus, UniProt Q6B856)
- Construct: from tissue; host or cells: mammalian brain: either rat brain (purified in house) or bovine brain (bought from Cytoskeleton #HTS02-A or Sigma-Aldrich #T4925)
- test: Single-point MDL competitive binding inhibition screen, brain tubulin
- Parameters: species or system bovine or rat
- condition-details: 50 µM drug, 1 µM tubulin, 5 µM MDL, single point
assay-metric: BTb % (inhibition of MDL binding)

Example entries begin here.
COc1ccc(CCc2cc(OC)c(OC)c(OC)c2)cc1O [Dyhydro CS A4, dihydrocombretastatin-A4]	46%
CC(Nc1ccccc1)=C1C(=O)NC(Cc2ccccc2)C1=O (centres unmarked)	74%

Batch lookup, BTb % (inhibition of MDL binding) per entry.
1. COc1ccc(-c2ccc(OC)c(=O)cc2)c(OC)c1OC
2. COc1ccc(C=Cc2cc(OC)cc(OC)c2)cc1 [Trimethoxy resveratrol (trans), 3, 5, 4’-trimethoxystilbene]
3. c1ccc2[nH]c(-c3cscn3)nc2c1
4. CC(C)=CCC/C(C)=C/CC/C(C)=C/Cc1c(O)c2ccccc2oc1=O
5. COc1cc2c(c(OC)c1OC)-c1ccc(OC)c(=O)cc1CCC2
6. CCC[S+]([O-])c1ccc2[nH]c(NC(=O)OC)nc2c1 (centres unmarked)

Outgoing:
1. 16%
2. 8%
3. 6%
4. 10%
5. 76%
6. 8%

====

- measured-on: BTb, colchicine site (Bos taurus, UniProt Q6B856)
- Construct: from tissue; host or cells: mammalian brain: either rat brain (purified in house) or bovine brain (bought from Cytoskeleton #HTS02-A or Sigma-Aldrich #T4925)
- test: Single-point MDL competitive binding inhibition screen, brain tubulin
- Set-up: species or system bovine or rat
- condition-details: 50 µM drug, 1 µM tubulin, 5 µM MDL, single point; read-out: BTb % (inhibition of MDL binding)
assay-metric: inhibition at 50 µM (%)
Numbers only, in %.

Example cases with answers are listed next.
COc1ccc2cc3[n+](cc2c1OC)CCc1cc2c(cc1-3)OCO2	4
COC(=O)Nc1nc2ccc(C(=O)c3ccccc3)cc2[nH]1	82

Answer for every listed entry: what is its inhibition at 50 µM? The entries follow.
1. COC(=O)Nc1nc2cc(C(=O)c3ccc(F)cc3)ccc2[nH]1
2. C[C@H]1CCC/C=C/C(=O)c2c(O)cc(O)cc2CC(=O)O1 [Dehydrocurvularin]
3. COc1ccc(NS(=O)(=O)c2c(F)c(F)c(F)c(F)c2F)cc1F

Outgoing:
[46, 2, 36]

====

- measured-on: BTb, colchicine site (Bos taurus, UniProt Q6B856)
- Construct: from tissue; host or cells: mammalian brain: either rat brain (purified in house) or bovine brain (bought from Cytoskeleton #HTS02-A or Sigma-Aldrich #T4925)
- test: Single-point MDL competitive binding inhibition screen, brain tubulin
- Set-up: species or system bovine or rat
- condition-details: 50 µM drug, 1 µM tubulin, 5 µM MDL, single point
assay-metric: BTb % (inhibition of MDL binding) (%)
One number for each entry, in %.

Use these answered entries as a reference point.
CN(C)c1ccc(NS(=O)(=O)c2c(F)c(F)c(F)c(F)c2F)cc1	44
COc1cc2c(cc1O)CC[C@@H]1[C@@H]2CC[C@]2(C)[C@@H](O)CC[C@@H]12	12
CCOC(=O)Nc1ccc(SC[C@@H]2CO[C@@](Cn3ccnc3)(c3ccc(Cl)cc3Cl)O2)cc1 [Tubulazole C]	31

Could you now look at the following molecule, please?
Incoming: Need BTb % (inhibition of MDL binding) of `CCOC(=O)Cc1cc(O)cc(O)c1C(C)=O` , thanks.
Outgoing: 3
